test system: HEK-293T; assay: Multiplex assay against HEK293T; assay type: toxicity, cell-based; conditions: human, 12 h, 1 µM, compound concentration 1 uM, replicate 1
# Lookup of reported Population Healthy Nuclei (%) keyed by entry
Assay endpoint: Population Healthy Nuclei (%)

# Compound, Observed
records = [
    ("CCCCCCNC(=O)Nc1ccc(S(=O)(=O)Nc2ccc(CCNC[C@H](O)COc3ccc(O)cc3)cc2)cc1 [L-755507]", 84),
    ("CC(F)(F)CN1CCOc2c(nn(-c3ccccc3Cl)c2-c2ccc(Cl)cc2)C1=O", 77),
    ("CSc1nc(NC2CCCC2)c([N+](=O)[O-])c(NC2CCCC2)n1 [GS-39783]", 74),
    ("CC(C)(O)C(=O)N1CCN(c2ccc(C(F)(F)F)c(C3=C(c4c[nH]c5ccccc45)C(=O)NC3=O)c2)CC1", 78),
    ("C[C@@H]1CC(=O)Nc2cccc(-c3ccc4c(c3)c(-c3cnn(C)c3)nn4C)c2N1", 76),
    ("O=c1ccc2ccc(OCCCCN3CCN(c4cccc5sccc45)CC3)cc2[nH]1 [BREXPIPRAZOLE]", 77),
    ("COCCn1c(C)c(C)s/c1=N\\C(=O)C1C(C)(C)C1(C)C", 77),
    ("O=C(NCCNCC(O)COc1ccc(O)cc1)N1CCOCC1.O=C(NCCNCC(O)COc1ccc(O)cc1)N1CCOCC1.O=C(O)/C=C/C(=O)O (stereo not drawn) [XAMOTEROL FUMARATE]", 79),
]
